- Method description: kinase inhibitors against Plasmodium liver-stage infection, cell-based, known kinase inhibitor set, luminescence, hepatoma host viability (AID 624392);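 further: infected cells incubated roughly two days before readout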
- Conditions used: Plasmodium liver stage in hepatoma cells, luciferase luminescence, concentration not given here; stronger effect = lower value
Measured endpoint: parasite % of control (%)

>>> recorded_number("O=C1N=c2ccc(N=Cc3c(O)[nH]c4ccccc34)cc2=N1")
117
>>> recorded_number("COc1ccc(-c2nn3ncccc3c2-c2ccnc(Nc3ccc(F)c(F)c3)n2)cc1")
16.9
>>> recorded_number("COc1cccc(-n2nc(C)c3c(N/N=C(\\C)c4ccncc4)ncnc32)c1")
124
>>> recorded_number("Cn1cc(C2=C(c3cn(CCCCCN)c4ccccc34)C(=O)NC2=O)c2ccccc21")
35.6
>>> recorded_number("Nc1c(C(=O)c2cccc(C(O)(CO)CO)c2)cnn1-c1ccc(F)cc1")
51.5
>>> recorded_number("COc1cccc2c1c(C1=C(c3cn(C)c4ccccc34)C(=O)NC1=O)cn2C")
34.6
>>> recorded_number("NS(=O)(=O)c1cccc(-c2ccc3c(NC(=O)C4CC4)n[nH]c3c2)c1")
241
>>> recorded_number("CN1CCN(CC#Cc2cccc(C(=O)c3cnn(-c4ccc(F)cc4)c3N)c2)CC1")
46.3
>>> recorded_number("Nc1c(C(=O)c2cccc(CCCN3CCOCC3)c2)cnn1-c1ccc(F)cc1")
48.1
>>> recorded_number("CCn1c(-c2nonc2N)nc2cnc(Oc3cccc(NC(=O)c4ccc(N(C)C)cc4)c3)cc21")
248

* * *

// reported insulin secretion stimulation for each item listed
- Method description: stimulators of insulin release from INS-1E, primary screen, cell-based, 5 mM glucose, NPC library (AID 1117329)
- Conditions used: rat INS-1E insulin secretion, at 10 µM, stronger effect = higher value
Measured endpoint: insulin secretion stimulation (%)

>>> recorded_number("CCCNC(C)C(=O)Nc1ccccc1C (configuration not stated)")
-0.2
>>> recorded_number("N#C/C(=C1/SC[C@@H](c2ccc(Cl)cc2Cl)S1)n1ccnc1")
2.35
>>> recorded_number("CCOC(=O)NNc1ccc(N(CC)CC(C)O)nn1 (configuration not stated)")
0.3
>>> recorded_number("N[C@H](Cc1c[nH]c2ccccc12)C(=O)O")
2.7
>>> recorded_number("C[C@]12C=CC(=O)C=C1CC[C@@H]1[C@@H]2[C@@H](O)C[C@@]2(C)[C@H]1CC[C@]2(O)C(=O)CO")
1.6
>>> recorded_number("CC(C)(C)NCC(O)COc1ccc(NC(=O)NC2CCCCC2)cc1 (configuration not stated)")
1.65
>>> recorded_number("CCOC(=O)CN1CCCC1=O")
2.1
>>> recorded_number("Cc1cnc(NS(=O)(=O)c2ccc(N)cc2)nc1")
1.8
>>> recorded_number("CN(C)CCN1CCN(c2cccc(Cl)c2)C1=O")
2.6
>>> recorded_number("Cc1ncc(C[n+]2csc(CCOP(=O)(O)O)c2C)c(N)n1")
-0.4
>>> recorded_number("COc1cc(O)cc(O)c1")
4.5
>>> recorded_number("O=C1Nc2cc(Cl)ccc2Oc2ccccc21")
-0.2
>>> recorded_number("CN(C)CCC=C1c2ccccc2CCc2ccccc21")
41.5
>>> recorded_number("Nc1ccc([N+](=O)[O-])c(C(F)(F)F)c1")
0.2
>>> recorded_number("CCc1nnc(NS(=O)(=O)c2ccc(N)cc2)s1")
-0.8
>>> recorded_number("Cc1nc(C2CCCCC2)c(-c2ccc(S(N)(=O)=O)c(F)c2)o1")
1.4
>>> recorded_number("Cc1cn([C@@H]2O[C@H](CO)[C@@H](O)[C@H]2F)c(=O)[nH]c1=O")
0.3
>>> recorded_number("Cn1c(=O)c2[nH]cnc2n(C)c1=O")
0.2
>>> recorded_number("CN(C)[C@@H]1C(=O)C(C(N)=O)=C(O)[C@@]2(O)C(=O)C3=C(O)c4c(O)cccc4C[C@H]3C[C@@H]12")
-3
>>> recorded_number("CO[C@@H]1[C@@H](OC)[C@H](C)[C@@](O)(CC(=O)O)O[C@H]1[C@H](C)[C@H]1O[C@@]2(CC[C@@](C)([C@H]3CC[C@@](C)([C@@H]4O[C@@H]([C@H]5O[C@](C)(O)[C@H](C)C[C@@H]5C)C[C@@H]4OC4C[C@H](OC)[C@@H](OC)[C@H](C)O4)O3)O2)C[C@H](O)[C@H]1C (some centres not stated)")
5.4
>>> recorded_number("O=c1[nH]cc(F)c(=O)[nH]1")
-3
>>> recorded_number("O=C(Nc1ccc(Cl)c(Cl)c1)C1CC1")
2.2

The reported measurements were obtained from PubChem BioAssay.
